experimental_system: HLA-A*01:01
experiment: IEDB peptide-MHC binding, purified MHC/competitive/radioactivity; filed as Kd, often an IC50 or EC50 that approximates it; bounds were set here for any values at or beyond the usual limits of such assays
condition: source organism: Mammarenavirus guanaritoense
pKd: −log10 of the molar value.
Here the recorded pKd is given for each entry.
observed_property: pKd

TTDFTRLRY; 8.12
YSEESPTEY; 6.65
SWDNTSVDLY; 5.89

* * *

experimental_system: HLA-B*46:01
experiment: IEDB peptide-MHC binding, purified MHC/direct/fluorescence; filed as Kd, often an IC50 or EC50 that approximates it; bounds were set here for any values at or beyond the usual limits of such assays
condition: source organism: Ebola virus - Gabon (1994-1997)
observed_property: Kd

YFTFDLTAL; ≥ 20 µM

* * *

Here the recorded Kd is given for each entry.
experimental_system: HLA-A*02:19
experiment: IEDB peptide-MHC binding, purified MHC/direct/fluorescence; filed as Kd, often an IC50 or EC50 that approximates it; bounds were set here for any values at or beyond the usual limits of such assays
condition: source organism: Zaire ebolavirus
observed_property: Kd

WLQKIPLQW; ≥ 20 µM
YFTFDLTAL; ≥ 20 µM
LTDRELLLL; ≥ 20 µM

* * *

experimental_system: HLA-B*15:17
experiment: IEDB peptide-MHC binding, purified MHC/direct/fluorescence; filed as Kd, often an IC50 or EC50 that approximates it; bounds were set here for any values at or beyond the usual limits of such assays
condition: source organism: Mammarenavirus lassaense
pKd: −log10 of the molar value.
observed_property: pKd

GYAWIDFDI; ≤ 4.70

* * *

experimental_system: HLA-A*02:06
experiment: IEDB peptide-MHC binding, purified MHC/competitive/fluorescence; filed as Kd, often an IC50 or EC50 that approximates it; bounds were set here for any values at or beyond the usual limits of such assays
condition: source organism: Vaccinia virus Copenhagen
pKd: −log10 of the molar value.
observed_property: pKd

YPPPRYITV; 7.94

* * *

experimental_system: HLA-B*54:01
experiment: IEDB peptide-MHC binding, purified MHC/competitive/radioactivity; filed as Kd, often an IC50 or EC50 that approximates it; bounds were set here for any values at or beyond the usual limits of such assays
condition: source organism: SARS coronavirus Tor2
pKd: −log10 of the molar value.
observed_property: pKd

RPIFEWIEA; 7.00

* * *

experimental_system: HLA-A*26:01
experiment: IEDB peptide-MHC binding, purified MHC/competitive/radioactivity; filed as Kd, often an IC50 or EC50 that approximates it; bounds were set here for any values at or beyond the usual limits of such assays
condition: source organism: Mammarenavirus juninense
pKd: −log10 of the molar value.
observed_property: pKd

GVLEEQGSFY; 6.65

* * *

experimental_system: HLA-B*40:01
experiment: IEDB peptide-MHC binding, purified MHC/direct/fluorescence; filed as Kd, often an IC50 or EC50 that approximates it; bounds were set here for any values at or beyond the usual limits of such assays
condition: source organism: Influenza A virus (A/Puerto Rico/8/34/Mount Sinai(H1N1))
observed_property: Kd (µM)

SADPLASLL; 3.25

* * *

experimental_system: HLA-B*39:01
experiment: IEDB peptide-MHC binding, purified MHC/competitive/fluorescence; filed as Kd, often an IC50 or EC50 that approximates it; bounds were set here for any values at or beyond the usual limits of such assays
condition: source organism: Burkholderia pseudomallei K96243
observed_property: Kd

DELWRGLLA; ≥ 20 µM

* * *

experimental_system: HLA-B*15:01
experiment: IEDB peptide-MHC binding, purified MHC/direct/fluorescence; filed as Kd, often an IC50 or EC50 that approximates it; bounds were set here for any values at or beyond the usual limits of such assays
condition: source organism: Influenza A virus (A/equine/New York/1/1999(H3N8))
observed_property: Kd

ELVRKTRFL; ≥ 20 µM

* * *

experimental_system: HLA-A*26:01
experiment: IEDB peptide-MHC binding, purified MHC/direct/fluorescence; filed as Kd, often an IC50 or EC50 that approximates it; bounds were set here for any values at or beyond the usual limits of such assays
condition: source organism: Ravn virus - Ravn, Kenya, 1987
observed_property: Kd

VPAWLPLGI; ≥ 20 µM

* * *

experimental_system: HLA-B*08:02
experiment: IEDB peptide-MHC binding, purified MHC/direct/fluorescence; filed as Kd, often an IC50 or EC50 that approximates it; bounds were set here for any values at or beyond the usual limits of such assays
condition: source organism: Influenza A virus(A/swine/Shandong/fNY/2003(H9N2))
pKd: −log10 of the molar value.
observed_property: pKd

SADPLASLL; ≤ 4.70

* * *

experimental_system: HLA-A*03:01
experiment: IEDB peptide-MHC binding, purified MHC/competitive/radioactivity; filed as Kd, often an IC50 or EC50 that approximates it; bounds were set here for any values at or beyond the usual limits of such assays
condition: source organism: SARS coronavirus Tor2
pKd: −log10 of the molar value.
observed_property: pKd

QTVKPGNFNK; 5.56
VLTSEEVVLK; 5.13
GVVREFLTR; 4.72
RFQPFQQFGR; 4.87
RQLFKPLTK; 7.04
SFIEDLLFNK; 5.10
FLKEQHCQK; 6.71
IMASLVLAR; 7.97
VTCAAYYFMK; 7.90
NFLKEQHCQK; 5.14
TFFSTFKCY; 5.24
FLLNKEMYLK; 7.23
SLTVLFDGR; 5.32
NLLDSYFVVK; 5.27
AFHTPAFDK; 5.84
SLTSLLKTHR; 5.84
MQNCLLRLK; 7.01
SVFYLYLTFY; 5.75
FVFPLNSKVK; 6.79
PVNQFTGYLK; 5.27
DQDALFAYTK; 5.37

* * *

experimental_system: HLA-A*30:02
experiment: IEDB peptide-MHC binding, purified MHC/competitive/radioactivity; filed as Kd, often an IC50 or EC50 that approximates it; bounds were set here for any values at or beyond the usual limits of such assays
condition: source organism: SARS coronavirus Tor2
pKd: −log10 of the molar value.
observed_property: pKd

LAAEWVLAY; 7.79
TSSGDATTAY; 6.22
NQDLNGNWY; 5.57
ILSDDAVVCY; 5.68
YIESKRGVY; 7.33
HHANEYRQY; 5.16
DEEGNLLDSY; 5.05
HMVVKSALL; 6.02
LLEIKDKEQY; 5.90

* * *

experimental_system: HLA-B*07:02
experiment: IEDB peptide-MHC binding, purified MHC/direct/fluorescence; filed as Kd, often an IC50 or EC50 that approximates it; bounds were set here for any values at or beyond the usual limits of such assays
condition: source organism: Oran virus
observed_property: Kd (nM)

KPKALSEAF; 76.5

* * *

experimental_system: HLA-B*07:02
experiment: IEDB peptide-MHC binding, purified MHC/competitive/radioactivity; filed as Kd, often an IC50 or EC50 that approximates it; bounds were set here for any values at or beyond the usual limits of such assays
condition: source organism: Dengue virus 4 Philippines/H241/1956
observed_property: Kd

LQRKHGGSL; 58.2 nM
FPTSRTTWSI; 55.5 nM
LPDYGELTL; 67.8 nM
GPLRMVLAF; 5.58 nM

* * *

experimental_system: HLA-A*03:01
experiment: IEDB peptide-MHC binding, purified MHC/competitive/fluorescence; bounds were set here for any values at or beyond the usual limits of such assays
condition: source organism: Zaire ebolavirus
pIC50: −log10 of the molar value.
observed_property: pIC50

IQNVPGPHR; 5.07
AFLILPQAK; 4.70

* * *

experimental_system: HLA-A*23:01
experiment: IEDB peptide-MHC binding, purified MHC/competitive/radioactivity; filed as Kd, often an IC50 or EC50 that approximates it; bounds were set here for any values at or beyond the usual limits of such assays
condition: source organism: Dengue virus 1 Brazil/97-11/1997
observed_property: Kd (nM)

SFGCKPLTMF; 103
TWSIHAHHQW; 950
KLVMAFIAF; 4820

* * *

experimental_system: HLA-A*02:01
experiment: IEDB peptide-MHC binding, purified MHC/competitive/radioactivity; filed as Kd, often an IC50 or EC50 that approximates it; bounds were set here for any values at or beyond the usual limits of such assays
condition: source organism: Dengue virus 1 Singapore/S275/1990
Here the recorded Kd is given for each entry.
observed_property: Kd

KTMAMVLSIV; 26.4 nM
KLVMAFIAFL; 28.9 nM
LTAAVLMLV; 1.14 nM

* * *

experimental_system: HLA-B*07:02
experiment: IEDB peptide-MHC binding, purified MHC/direct/fluorescence; filed as Kd, often an IC50 or EC50 that approximates it; bounds were set here for any values at or beyond the usual limits of such assays
condition: source organism: Lyssavirus rabies
observed_property: Kd

RQMKSGGRF; ≥ 20 µM

* * *

experimental_system: HLA-A*68:02
experiment: IEDB peptide-MHC binding, purified MHC/competitive/fluorescence; filed as Kd, often an IC50 or EC50 that approximates it; bounds were set here for any values at or beyond the usual limits of such assays
condition: source organism: Orthomarburgvirus marburgense
observed_property: Kd (µM)

TVLEFILQK; 3.88
